Data origin: paper PMC6261661

assayed target: mMC4R (Mus musculus)
Sequence (P56450 whole entry): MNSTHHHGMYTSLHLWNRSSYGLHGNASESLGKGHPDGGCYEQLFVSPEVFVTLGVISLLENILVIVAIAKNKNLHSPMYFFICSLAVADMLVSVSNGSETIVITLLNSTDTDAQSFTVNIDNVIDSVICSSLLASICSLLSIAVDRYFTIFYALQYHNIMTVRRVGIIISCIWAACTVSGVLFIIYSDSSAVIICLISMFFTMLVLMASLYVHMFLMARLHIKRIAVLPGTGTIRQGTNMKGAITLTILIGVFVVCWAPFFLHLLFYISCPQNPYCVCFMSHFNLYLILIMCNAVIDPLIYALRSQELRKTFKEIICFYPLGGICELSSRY
test description: CRE/β-galactosidase reporter gene bioassay, agonist activity at mMC4R
Type: cell-based
particulars: ligand at 100 μM, compared to maximal response generated by α-MSH
Square brackets hold non-standard residues; d marks the D form. Peptide text beside a SMILES is read from it. * marks the point of attachment. Bip = N[C@@H](Cc1ccc(-c2ccccc2)cc1)C(=O)O; dBip = N[C@H](Cc1ccc(-c2ccccc2)cc1)C(=O)O; dPhe(4-I) = N[C@H](Cc1ccc(I)cc1)C(=O)O; Bta = N[C@@H](Cc1csc2ccccc12)C(=O)O; 2Thi = N[C@@H](Cc1cccs1)C(=O)O; Octanoyl = CCCCCCCC(=O)*
As shown below, each of these molecules has a reported mMC4R relative percentage of stimulation at 100 μM value.
measured endpoint: mMC4R relative percentage of stimulation at 100 μM (%)

| molecule | assayed target | value reported |
| --- | --- | --- |
| CCCCCCCC(=O)N[C@@H](Cc1c[nH]cn1)C(=O)N[C@H](Cc1ccccc1)C(=O)N[C@@H](CCCNC(=N)N)C(=O)N[C@@H](Cc1ccc(-c2ccccc2)cc1)C(N)=O [Peptide 2, Octanoyl-His-DPhe-Arg-Bip-NH2] (Octanoyl-H[dF]R[Bip]-NH2) | mMC4R (Mus musculus) | 40 |
| CC(=O)N[C@@H](Cc1c[nH]c2ccccc12)C(=O)N[C@H](Cc1ccc(I)cc1)C(=O)N[C@@H](CCCNC(=N)N)C(=O)N[C@@H](Cc1c[nH]c2ccccc12)C(N)=O [Peptide 13, Ac-Trp-(pI)DPhe-Arg-Trp-NH2] (Ac-W[dPhe(4-I)]RW-NH2) | mMC4R (Mus musculus) | 40 |
| CC(=O)N[C@@H](Cc1c[nH]cn1)C(=O)N[C@H](Cc1ccc(-c2ccccc2)cc1)C(=O)N[C@@H](CCCNC(=N)N)C(=O)N[C@H](Cc1ccc(-c2ccccc2)cc1)C(N)=O [Peptide 35, Ac-His-DBip-Arg-DBip-NH2] (Ac-H[dBip]R[dBip]-NH2) | mMC4R (Mus musculus) | 23 |
| CC(=O)N[C@@H](Cc1c[nH]cn1)C(=O)N[C@H](Cc1ccc(I)cc1)C(=O)N[C@@H](CCCNC(=N)N)C(=O)N[C@@H](Cc1ccc(-c2ccccc2)cc1)C(N)=O [Peptide 29, Ac-His-(pI)DPhe-Arg-Bip-NH2] (Ac-H[dPhe(4-I)]R[Bip]-NH2) | mMC4R (Mus musculus) | 30 |
| CC(=O)N[C@@H](Cc1c[nH]cn1)C(=O)N[C@H](Cc1ccc(-c2ccccc2)cc1)C(=O)N[C@@H](CCCNC(=N)N)C(=O)N[C@@H](Cc1ccc(-c2ccccc2)cc1)C(N)=O [Peptide 33, Ac-His-DBip-Arg-Bip-NH2] (Ac-H[dBip]R[Bip]-NH2) | mMC4R (Mus musculus) | 30 |
| CCCCCCCC(=O)N[C@@H](Cc1c[nH]cn1)C(=O)N[C@H](Cc1ccc(I)cc1)C(=O)N[C@@H](CCCNC(=N)N)C(=O)N[C@@H](Cc1c[nH]c2ccccc12)C(N)=O [Peptide 6, Octanoyl-His-(pI)DPhe-Arg-Trp-NH2] | mMC4R (Mus musculus) | 30 |
| CC(=O)N[C@@H](Cc1ccccc1)C(=O)N[C@H](Cc1ccc(I)cc1)C(=O)N[C@@H](CCCNC(=N)N)C(=O)N[C@@H](Cc1c[nH]c2ccccc12)C(N)=O [Peptide 15, Ac-Phe-(pI)DPhe-Arg-Trp-NH2] (Ac-F[dPhe(4-I)]RW-NH2) | mMC4R (Mus musculus) | 30 |
| CC(=O)N[C@@H](Cc1c[nH]cn1)C(=O)N[C@H](Cc1ccc(I)cc1)C(=O)N[C@@H](CCCNC(=N)N)C(=O)N[C@@H](Cc1csc2ccccc12)C(N)=O [Peptide 30, Ac-His-(pI)DPhe-Arg-3Bal-NH2] (Ac-H[dPhe(4-I)]R[Bta]-NH2) | mMC4R (Mus musculus) | 50 |
| CC(=O)N[C@@H](Cc1cccs1)C(=O)N[C@H](Cc1ccc(I)cc1)C(=O)N[C@@H](CCCNC(=N)N)C(=O)N[C@@H](Cc1c[nH]c2ccccc12)C(N)=O [Peptide 14, Ac-2Thi-(pI)DPhe-Arg-Trp-NH2] (Ac-[2Thi][dPhe(4-I)]RW-NH2) | mMC4R (Mus musculus) | 55 |
| CC(=O)N[C@@H](Cc1c[nH]cn1)C(=O)N[C@H](Cc1ccc(-c2ccccc2)cc1)C(=O)N[C@@H](CCCNC(=N)N)C(=O)N[C@@H](Cc1csc2ccccc12)C(N)=O [Peptide 34, Ac-His-DBip-Arg-3Bal-NH2] (Ac-H[dBip]R[Bta]-NH2) | mMC4R (Mus musculus) | 65 |

* * *

Measured pEC50 accompanies every entry in the list below.
assayed target: UniProt P41149
Sequence (P41149 whole entry): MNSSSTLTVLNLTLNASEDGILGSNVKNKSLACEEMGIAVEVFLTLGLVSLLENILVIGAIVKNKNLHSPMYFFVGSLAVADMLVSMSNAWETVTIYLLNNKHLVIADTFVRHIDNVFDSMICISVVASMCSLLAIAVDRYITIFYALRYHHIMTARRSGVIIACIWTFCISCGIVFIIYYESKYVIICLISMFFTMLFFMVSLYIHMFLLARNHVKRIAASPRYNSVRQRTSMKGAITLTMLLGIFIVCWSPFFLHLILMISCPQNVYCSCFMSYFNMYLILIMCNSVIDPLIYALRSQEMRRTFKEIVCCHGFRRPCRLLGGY
test description: CRE/β-galactosidase reporter gene bioassay, agonist activity at mMC5R
Format: cell-based
pEC50: −log10 of the molar value. Square brackets hold non-standard residues; d marks the D form. Peptide text beside a SMILES is read from it. * marks the point of attachment. dBip = N[C@H](Cc1ccc(-c2ccccc2)cc1)C(=O)O; dPhe(4-I) = N[C@H](Cc1ccc(I)cc1)C(=O)O; d1Nal = N[C@H](Cc1cccc2ccccc12)C(=O)O; Bta = N[C@@H](Cc1csc2ccccc12)C(=O)O; 4Pal = N[C@@H](Cc1ccncc1)C(=O)O; 2Thi = N[C@@H](Cc1cccs1)C(=O)O; Octanoyl = CCCCCCCC(=O)*

| compound | assayed target | pEC50 |
| --- | --- | --- |
| CC(=O)N[C@@H](Cc1cccs1)C(=O)N[C@H](Cc1ccccc1)C(=O)N[C@@H](CCCNC(=N)N)C(=O)N[C@@H](Cc1csc2ccccc12)C(N)=O [Peptide 27, Ac-2Thi-DPhe-Arg-3Bal-NH2] (Ac-[2Thi][dF]R[Bta]-NH2) | UniProt P41149 | 6.01 |
| CCCCCCCC(=O)N[C@@H](Cc1c[nH]cn1)C(=O)N[C@H](Cc1ccccc1)C(=O)N[C@@H](CCCNC(=N)N)C(=O)N[C@H](Cc1ccc(-c2ccccc2)cc1)C(N)=O [Peptide 8, Octanoyl-His-DPhe-Arg-DBip-NH2] (Octanoyl-H[dF]R[dBip]-NH2) | UniProt P41149 | 7.51 |
| CC(=O)N[C@@H](Cc1ccncc1)C(=O)N[C@H](Cc1ccc(I)cc1)C(=O)N[C@@H](CCCNC(=N)N)C(=O)N[C@@H](Cc1c[nH]c2ccccc12)C(N)=O [Peptide 16, Ac-4PAL-(pI)DPhe-Arg-Trp-NH2] (Ac-[4Pal][dPhe(4-I)]RW-NH2) | UniProt P41149 | 6.21 |
| CC(=O)N[C@@H](Cc1ccccc1)C(=O)N[C@H](Cc1cccc2ccccc12)C(=O)N[C@@H](CCCNC(=N)N)C(=O)N[C@@H](Cc1c[nH]c2ccccc12)C(N)=O [Peptide 21, Ac-Phe-DNal(1’)-Arg-Trp-NH2] (Ac-F[d1Nal]RW-NH2) | UniProt P41149 | 5.42 |

* * *

assayed target: mMC1R (Mus musculus, UniProt Q01727)
Sequence (Q01727 whole entry): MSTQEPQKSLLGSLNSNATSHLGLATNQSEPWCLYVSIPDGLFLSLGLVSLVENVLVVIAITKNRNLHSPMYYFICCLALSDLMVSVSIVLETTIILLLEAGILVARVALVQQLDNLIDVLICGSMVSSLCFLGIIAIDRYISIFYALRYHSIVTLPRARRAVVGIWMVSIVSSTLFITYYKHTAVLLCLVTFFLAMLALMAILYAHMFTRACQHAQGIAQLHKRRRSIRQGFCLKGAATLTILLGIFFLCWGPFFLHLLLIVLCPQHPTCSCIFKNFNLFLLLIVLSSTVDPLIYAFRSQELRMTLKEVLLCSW
test description: CRE/β-galactosidase reporter gene bioassay, agonist activity at mMC1R
Type: cell-based
particulars: mMC1R EC50, agonist; HEK-293 cells stably expressing receptor; ±SEM
Square brackets hold non-standard residues; d marks the D form. Peptide text beside a SMILES is read from it. Bip = N[C@@H](Cc1ccc(-c2ccccc2)cc1)C(=O)O; dBip = N[C@H](Cc1ccc(-c2ccccc2)cc1)C(=O)O; dPhe(4-I) = N[C@H](Cc1ccc(I)cc1)C(=O)O; 1Nal = N[C@@H](Cc1cccc2ccccc12)C(=O)O; d1Nal = N[C@H](Cc1cccc2ccccc12)C(=O)O; d2Nal = N[C@H](Cc1ccc2ccccc2c1)C(=O)O; 4Pal = N[C@@H](Cc1ccncc1)C(=O)O; 2Thi = N[C@@H](Cc1cccs1)C(=O)O
EC50 strictly under 3000 nM means 1; at 3000 nM or over means -1.

| molecule | category |
| --- | --- |
| CC(=O)N[C@@H](Cc1ccncc1)C(=O)N[C@H](Cc1ccc(I)cc1)C(=O)N[C@@H](CCCNC(=N)N)C(=O)N[C@@H](Cc1c[nH]c2ccccc12)C(N)=O [Peptide 16, Ac-4PAL-(pI)DPhe-Arg-Trp-NH2] (Ac-[4Pal][dPhe(4-I)]RW-NH2) | 1 |
| CC(=O)N[C@@H](Cc1c[nH]cn1)C(=O)N[C@H](Cc1ccc(I)cc1)C(=O)N[C@@H](CCCNC(=N)N)C(=O)N[C@@H](Cc1ccccc1)C(N)=O [Peptide 32, Ac-His-(pI)DPhe-Arg-Phe-NH2] (Ac-H[dPhe(4-I)]RF-NH2) | 1 |
| CC(=O)N[C@@H](Cc1c[nH]c2ccccc12)C(=O)N[C@H](Cc1ccc(-c2ccccc2)cc1)C(=O)N[C@@H](CCCNC(=N)N)C(=O)N[C@@H](Cc1c[nH]c2ccccc12)C(N)=O [Peptide 18, Ac-Trp-DBip-Arg-Trp-NH2] (Ac-W[dBip]RW-NH2) | 1 |
| CC(=O)N[C@@H](Cc1cccs1)C(=O)N[C@H](Cc1ccc(I)cc1)C(=O)N[C@@H](CCCNC(=N)N)C(=O)N[C@@H](Cc1c[nH]c2ccccc12)C(N)=O [Peptide 14, Ac-2Thi-(pI)DPhe-Arg-Trp-NH2] (Ac-[2Thi][dPhe(4-I)]RW-NH2) | 1 |
| CC(=O)N[C@@H](Cc1c[nH]cn1)C(=O)N[C@H](Cc1ccc(I)cc1)C(=O)N[C@@H](CCCNC(=N)N)C(=O)N[C@@H](Cc1ccc(-c2ccccc2)cc1)C(N)=O [Peptide 29, Ac-His-(pI)DPhe-Arg-Bip-NH2] (Ac-H[dPhe(4-I)]R[Bip]-NH2) | 1 |
| CC(=O)N[C@@H](Cc1c[nH]c2ccccc12)C(=O)N[C@H](Cc1cccc2ccccc12)C(=O)N[C@@H](CCCNC(=N)N)C(=O)N[C@@H](Cc1c[nH]c2ccccc12)C(N)=O [Peptide 19, Ac-Trp-DNal(1’)-Arg-Trp-NH2] (Ac-W[d1Nal]RW-NH2) | -1 |
| CC(=O)N[C@@H](Cc1c[nH]c2ccccc12)C(=O)N[C@H](Cc1ccccc1)C(=O)N[C@@H](CCCNC(=N)N)C(=O)N[C@H](Cc1ccc2ccccc2c1)C(N)=O [Peptide 26, Ac-Trp-DPhe-Arg-DNal(2’)-NH2] (Ac-W[dF]R[d2Nal]-NH2) | -1 |
| CC(=O)N[C@@H](Cc1c[nH]c2ccccc12)C(=O)N[C@H](Cc1ccccc1)C(=O)N[C@@H](CCCNC(=N)N)C(=O)N[C@@H](Cc1cccc2ccccc12)C(N)=O [Peptide 24, Ac-Trp-DPhe-Arg-Nal(1’)-NH2] (Ac-W[dF]R[1Nal]-NH2) | -1 |
| CC(=O)N[C@@H](Cc1c[nH]cn1)C(=O)N[C@H](Cc1ccc(-c2ccccc2)cc1)C(=O)N[C@@H](CCCNC(=N)N)C(=O)N[C@H](Cc1ccc(-c2ccccc2)cc1)C(N)=O [Peptide 35, Ac-His-DBip-Arg-DBip-NH2] (Ac-H[dBip]R[dBip]-NH2) | 1 |
| CC(=O)N[C@@H](Cc1ccccc1)C(=O)N[C@H](Cc1cccc2ccccc12)C(=O)N[C@@H](CCCNC(=N)N)C(=O)N[C@@H](Cc1c[nH]c2ccccc12)C(N)=O [Peptide 21, Ac-Phe-DNal(1’)-Arg-Trp-NH2] (Ac-F[d1Nal]RW-NH2) | -1 |
